# System: DDR2
# MEASUREMENT CONDITIONS: concentration: 1 μM,replicates: in singlicate; n = 1;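 also: KINOMEscan kinase panel screen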
Here the recorded %Inh is given for each entry.
Kindly answer with a numeric value in %, unit omitted.

Record excerpt, results attached:
Cl.Cl.Nc1nc(-c2ccc3c(N)n[nH]c3c2)cc(N2CCCC(NC(=O)c3ccccc3)C2)n1 (centres unmarked) ... 0
COc1ccc(C[C@@H](CN)NC(=O)c2cc(Br)c(-c3ccnc4[nH]ccc34)s2)cc1.Cl.Cl ... 26
Cc1n[nH]c2ccc(-c3cc(OC[C@@H](N)Cc4ccccc4)cnc3-c3ccoc3)cc12.O=C(O)C(F)(F)F.O=C(O)C(F)(F)F ... 0
CC(C)N1C(=O)Cc2cc(Nc3ncc(C(F)(F)F)c(NCc4cccc(S(C)(=O)=O)c4)n3)ccc21 ... 0
C=CC(=O)Nc1cc2c(Nc3ccc(F)c(Cl)c3)ncnc2cc1OCCCN1CCOCC1 ... 44

Reported DDR2 %Inh for item CC(C)Nc1cc(-c2ccc3c(N)n[nH]c3c2)nc(N)n1 was 0

Reported DDR2 %Inh for item CCN(CC)CCCCNc1ncc2cc(-c3c(Cl)cccc3Cl)c(NC(=O)NC(C)(C)C)nc2n1 was 100

Reported DDR2 %Inh for item O=C(NCCNc1ccnc(NCc2ccc(F)cc2)n1)c1cc2ccccc2s1 was 0

====

# System: MINK
# Construct: gene MINK1
# MEASUREMENT CONDITIONS: concentration: 1 μM,replicates: in singlicate; n = 1
Here the recorded %Inh is given for each entry.
Report as: number unit

Record excerpt, results attached:
Cl.Cl.NC[C@H](Cc1ccc(C(F)(F)F)cc1)NC(=O)c1cc(Br)c(-c2ccnc3[nH]ccc23)s1 ... 27%
Cl.Cl.Nc1nc(-c2ccc3c(N)n[nH]c3c2)cc(N2CCCC(NC(=O)c3ccccc3)C2)n1 (stereo not shown) ... 17%
C[C@@H]1CCN(C(=O)CC#N)C[C@@H]1N(C)c1ncnc2[nH]ccc12 ... 0%

Next item in the queue.
Form field %Inh, entry CCn1c(-c2nonc2N)nc2c(C#CC(C)(C)O)nc(OCCN)cc21.Cl.Cl : 0%

====

# Test system: MARK3
# MEASUREMENT CONDITIONS: concentration: 1 μM,replicates: in singlicate; n = 1
PROPERTY MEASURED: %Inh (%)
Kindly answer with a numeric value in %, unit omitted.

Record excerpt, results attached:
CN(C)CC(O)COc1ccc(Nc2nccc(-c3cnn4nc(N5CCOCC5)ccc34)n2)cc1 (stereo not shown) ... 19
CN(C)CCOc1ccc(-c2cc(-c3c[nH]nc3-c3ccccn3)ccn2)cc1 ... 5
C=CC(=O)Nc1cc2c(Nc3ccc(F)c(Cl)c3)ncnc2cc1OCCCN1CCOCC1 ... 10

Form field %Inh, entry Cl.Cl.NC[C@H](CC1CCCCC1)NC(=O)c1cc(Br)c(-c2ccnc3[nH]ccc23)s1 : 74

====

# System: MEK4
# Construct: gene MAP2K4
# MEASUREMENT CONDITIONS: concentration: 1 μM,replicates: in singlicate; n = 1
Here the recorded %Inh is given for each entry.
Kindly answer with a numeric value in %, unit omitted.

Cc1cc(C(=O)Nc2ccc(Oc3ccc4nc(NC(=O)C5CC5)cn4n3)cc2)nn1-c1ccccc1 ... 0
NC(=O)c1cc(-c2ccccc2)cc2c(C3CCNCC3)c[nH]c12 ... 34
O=C(NCCNc1ccnc(NCc2ccc(F)cc2)n1)c1cc2ccccc2s1 ... 1
C[C@@H](Oc1cc(-c2cnn(C3CCNCC3)c2)cnc1N)c1c(Cl)ccc(F)c1Cl ... 43
Nc1nc(Nc2ccccc2)cc(-c2ccc3c(N)n[nH]c3c2)n1 ... 23
Cl.Cl.NC[C@H](CC1CCCCC1)NC(=O)c1cc(Br)c(-c2ccnc3[nH]ccc23)s1 ... 41

Form field %Inh, entry CN(C)CCOc1ccc(-c2cc(-c3c[nH]nc3-c3ccccn3)ccn2)cc1 : 29

Form field %Inh, entry Cc1cc2cn[nH]c2cc1-c1cccc2c(N)c(C(N)=O)nnc12 : 68

Form field %Inh, entry Cc1occc1-c1nc(N)c(OC[C@@H](N)Cc2c[nH]c3ccccc23)cc1-c1cc2c(C)n[nH]c2cn1 : 0

Form field %Inh, entry Cc1ccc(-n2nc(C(C)(C)C)cc2NC(=O)Nc2ccc(OCCN3CCOCC3)c3ccccc23)cc1 : 0

Form field %Inh, entry Cl.Oc1cc(-c2nc(-c3ccccc3)[nH]c2-c2ccncc2)ccc1Cl : 23

Form field %Inh, entry CC(C)Nc1cc(-c2ccc3c(N)n[nH]c3c2)nc(N)n1 : 17

Form field %Inh, entry C[C@@H]1CCN(C(=O)CC#N)C[C@@H]1N(C)c1ncnc2[nH]ccc12 : 0

====

# System: TRKC
# Construct: gene NTRK3
# MEASUREMENT CONDITIONS: concentration: 1 μM,replicates: in singlicate; n = 1
Here the recorded %Inh is given for each entry.

Form field %Inh, entry CC(C)N1C(=O)Cc2cc(Nc3ncc(C(F)(F)F)c(NCc4cccc(S(C)(=O)=O)c4)n3)ccc21 : 62%

Form field %Inh, entry CCN(CC)CCOc1ccc(Nc2ncc3cc(-c4c(Cl)cccc4Cl)c(=O)n(C)c3n2)cc1 [SB-601273] : 92.9%

Form field %Inh, entry CCn1c(-c2nonc2N)nc2c(C#CC(C)(C)O)nc(OCCN)cc21.Cl.Cl [GSK902056] : 0%

Form field %Inh, entry CC(C)Nc1cc(-c2ccc3c(N)n[nH]c3c2)nc(N)n1 [GSK2221681] : 0%

====

# Test system: ULK2
# MEASUREMENT CONDITIONS: concentration: 1 μM,replicates: in singlicate; n = 1
Here the recorded %Inh is given for each entry.

Record excerpt, results attached:
CCN(CC)CCCCNc1ncc2cc(-c3c(Cl)cccc3Cl)c(NC(=O)NC(C)(C)C)nc2n1 ... 29%
Cc1ccc2c(-c3ccncc3)c(-c3ccc(F)cc3)nn2c1.Cl ... 0%
CN(C)CCOc1ccc(-c2cc(-c3c[nH]nc3-c3ccccn3)ccn2)cc1 ... 31%
Cc1ccc(-n2nc(C(C)(C)C)cc2NC(=O)Nc2ccc(OCCN3CCOCC3)c3ccccc23)cc1 ... 0%

Reported ULK2 %Inh for item C[C@@H](Oc1cc(-c2cnn(C3CCNCC3)c2)cnc1N)c1c(Cl)ccc(F)c1Cl was 53%

====

# Tested on: TESK1
# MEASUREMENT CONDITIONS: concentration: 1 μM,replicates: in singlicate; n = 1
PROPERTY MEASURED: %Inh
Report as: number unit

Record excerpt, results attached:
Cl.Cl.NC[C@H](CC1CCCCC1)NC(=O)c1cc(Br)c(-c2ccnc3[nH]ccc23)s1 ... 0%
CCn1c(-c2nonc2N)nc2c(C#CC(C)(C)O)nc(OCCN)cc21.Cl.Cl ... 14%

Next item in the queue.
Form field %Inh, entry NC(=O)c1cc(-c2ccccc2)cc2c(C3CCNCC3)c[nH]c12 : 18%

====

# Tested on: DDR1
# MEASUREMENT CONDITIONS: concentration: 1 μM,replicates: in singlicate; n = 1
PROPERTY MEASURED: %Inh (%)
Kindly answer with a numeric value in %, unit omitted.

Record excerpt, results attached:
Cc1n[nH]c2ccc(-c3cc(OC[C@@H](N)Cc4ccccc4)cnc3-c3ccoc3)cc12.O=C(O)C(F)(F)F.O=C(O)C(F)(F)F ... 0
Cl.Oc1cc(-c2nc(-c3ccccc3)[nH]c2-c2ccncc2)ccc1Cl ... 92.7
Cc1occc1-c1nc(N)c(OC[C@@H](N)Cc2c[nH]c3ccccc23)cc1-c1cc2c(C)n[nH]c2cn1 ... 10

Form field %Inh, entry C[C@@H]1CCN(C(=O)CC#N)C[C@@H]1N(C)c1ncnc2[nH]ccc12 : 0

====

# Tested on: PIK3CD
# MEASUREMENT CONDITIONS: concentration: 1 μM,replicates: in singlicate; n = 1
Here the recorded %Inh is given for each entry.
Kindly answer with a numeric value in %, unit omitted.

Record excerpt, results attached:
COc1ccc(C[C@@H](CN)NC(=O)c2cc(Br)c(-c3ccnc4[nH]ccc34)s2)cc1.Cl.Cl ... 2
Cl.Cl.Nc1nc(-c2ccc3c(N)n[nH]c3c2)cc(N2CCCC(NC(=O)c3ccccc3)C2)n1 (stereo not drawn) ... 2

Next item in the queue.
Form field %Inh, entry CN(C)CCOc1ccc(-c2cc(-c3c[nH]nc3-c3ccccn3)ccn2)cc1 : 2

====

Here the recorded %Inh is given for each entry.
# Tested on: CSNK1D
# MEASUREMENT CONDITIONS: concentration: 1 μM,replicates: in singlicate; n = 1
Kindly answer with a numeric value in %, unit omitted.

Record excerpt, results attached:
COc1ccc(C[C@@H](CN)NC(=O)c2cc(Br)c(-c3ccnc4[nH]ccc34)s2)cc1.Cl.Cl [GSK1389063] ... 90
Cc1occc1-c1nc(N)c(OC[C@@H](N)Cc2c[nH]c3ccccc23)cc1-c1cc2c(C)n[nH]c2cn1 [GSK1660450] ... 96.6

Form field %Inh, entry CN(C)CCOc1ccc(-c2cc(-c3c[nH]nc3-c3ccccn3)ccn2)cc1 [GW835314] : 25

Form field %Inh, entry Cc1cc(C(=O)Nc2ccc(Oc3ccc4nc(NC(=O)C5CC5)cn4n3)cc2)nn1-c1ccccc1 : 0

Form field %Inh, entry O=C(NCCCN1CCOC1=O)c1cnc(NCc2cc(Cl)ccc2Cl)nc1NC1CCCC1 : 12

Form field %Inh, entry CCN(CC)CCCCNc1ncc2cc(-c3c(Cl)cccc3Cl)c(NC(=O)NC(C)(C)C)nc2n1 : 14
